Assay: Dissociation constant (pKa) (determined in 30% EtOH)
Type: physicochemical
Use 4 as the dividing line for pKa, with the line itself on the 1 side and lower values as 0.

*Q* Would you say `C[C@@]1(C2CCCC2)Cc2cc(OCCCC(=O)O)c(Cl)c(Cl)c2C1=O` shows pKa at minimum 4?
*A* 1

*Q* hey, is pKa for this one >= 4? `C[C@]1(C2CCCC2)Cc2cc(OCCCC(=O)O)c(Cl)c(Cl)c2C1=O`
*A* 1

*Q* Entry CCC(C)C(=O)c1ccc(OCC(=O)O)c(Cl)c1Cl (configuration not stated) : is its pKa no less than 4?
*A* 0

*Q* Decide: pKa of CCC1(C2CCCC2)Cc2cc(OCCCC(=O)O)c(Cl)c(Cl)c2C1=O (racemic) >= 4?
*A* 0

*Q* Decide: pKa of CC1(c2ccccc2)Cc2cc(OCCCC(=O)O)c(Cl)c(Cl)c2C1=O (racemic) >= 4?
*A* 1

*Q* Tell me whether pKa is at least 4 here: `CCCC[C@@]1(C2CCCC2)Cc2cc(OCCCC(=O)O)c(Cl)c(Cl)c2C1=O`
*A* 1
